Data origin, for the record: patent US20040186104A1

Target: human kappa opioid receptor (Homo sapiens, UniProt P41145)
Construct: expressed in transfected cells; host or cells: HEK293S KOR cells (membrane preparations)
Sequence (P41145 whole entry): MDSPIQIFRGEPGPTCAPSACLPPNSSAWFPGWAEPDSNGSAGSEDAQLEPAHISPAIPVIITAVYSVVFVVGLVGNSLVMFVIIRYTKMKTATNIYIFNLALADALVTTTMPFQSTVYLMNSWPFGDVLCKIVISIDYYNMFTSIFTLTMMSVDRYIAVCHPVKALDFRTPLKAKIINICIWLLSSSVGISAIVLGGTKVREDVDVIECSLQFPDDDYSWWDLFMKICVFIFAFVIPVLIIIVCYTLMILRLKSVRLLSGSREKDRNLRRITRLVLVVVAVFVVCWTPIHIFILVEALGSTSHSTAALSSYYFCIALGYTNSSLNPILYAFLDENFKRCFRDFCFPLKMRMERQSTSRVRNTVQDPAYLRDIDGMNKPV
Test: Binding assay for opioid receptor transfected cell membrane in 96-well format (filtration), kappa opioid receptor
Conditions: HEK293S KOR cell membranes, radioligand 125I-(D-Pro10)-Dynorphin A (1-11), control inhibitor
result-type: IC50

Exercise: Which IC50 value is on record for CN(C(=O)C(c1ccccc1)c1ccccc1)[C@H](CN1CC[C@H](O)C1)c1ccccc1 ?
Key: 4 to 10 nM
